The values you see were collected from patent US9403756B2.

We begin with a simple list: items and their reported pEC50.
# TARGET_OR_TEST_SYSTEM: Kv7.2/3 channels (Homo sapiens, UniProt O43525+O43526)
# Construct: expressed in transfected cells; host or cells: CHO cells
# EXPERIMENTAL_DETAILS: Kv7.2/3 channels coexpressed in CHO cells, whole-cell patch-clamp
# Assay type: cell-based
# MEASUREMENT_CONTEXT: opener potency; concentration-dependent left-shift in half-activation potential ΔV50, sigmoidal fit; read-out: EC50
pEC50: −log10 of the molar value.
MEASURED_ATTRIBUTE: pEC50

[[record]]
molecule = "O=C(Cc1cc([N+](=O)[O-])ccc1Nc1c(Cl)cccc1Cl)NCCO"
value_reported = 4.77

[[record]]
molecule = "O=C(Cc1cc([N+](=O)[O-])ccc1Nc1c(Cl)cccc1Cl)OCCO"
value_reported = 4.66

[[record]]
molecule = "Cc1cccc(Nc2ccccc2C(=O)NCCOCCO)c1C"
value_reported = 5.52

[[record]]
molecule = "O=C(Cc1ccccc1Nc1c(Cl)cccc1Cl)OCCOCCO"
value_reported = 4.74

[[record]]
molecule = "Cc1c(Cl)cccc1Nc1ccccc1C(=O)NCCOCCO"
value_reported = 5.22

[[record]]
molecule = "Cc1ccc(Cl)c(Nc2ccccc2C(=O)O)c1Cl [Meclofenamic, Meclofenamic acid, reference compound]"
value_reported = 4.60

[[record]]
molecule = "O=C(O)Cc1ccccc1Nc1c(Cl)cccc1Cl [Diclofenac, reference compound]"
value_reported = 5.59

[[record]]
molecule = "O=C(NCCOCCO)c1ccccc1Nc1cccc(C(F)(F)F)c1"
value_reported = 5.05


---

# TARGET_OR_TEST_SYSTEM: Kv7.2/3 channels (Homo sapiens, UniProt O43525+O43526)
# Construct: expressed in transfected cells; host or cells: CHO cells
# EXPERIMENTAL_DETAILS: Kv7.2/3 channels coexpressed in CHO cells, whole-cell patch-clamp
# Format: cell-based
# MEASUREMENT_CONTEXT: M-channel modulation; Kv7.2 and Kv7.3 subunits coexpressed in CHO cells
MEASURED_ATTRIBUTE: Activity

[[record]]
compound = "Cc1ccc(Cl)c(Nc2ccccc2C(=O)O)c1Cl [Meclofenamic, Meclofenamic acid, reference compound]"
target_or_test_system = "Kv7.2/3 channels (Homo sapiens, UniProt O43525+O43526)"
measured_attribute = "Activity"
value_reported = "Opener"

[[record]]
compound = "O=C(Cc1ccccc1Nc1c(Cl)cccc1Cl)NCCOCCO"
target_or_test_system = "Kv7.2/3 channels (Homo sapiens, UniProt O43525+O43526)"
measured_attribute = "Activity"
value_reported = "Opener"

[[record]]
compound = "O=C(Cc1ccccc1Nc1c(Cl)cccc1Cl)OCCO"
target_or_test_system = "Kv7.2/3 channels (Homo sapiens, UniProt O43525+O43526)"
measured_attribute = "Activity"
value_reported = "Opener"

[[record]]
compound = "Cc1c(Cl)cccc1Nc1ccccc1C(=O)NCCOCCO"
target_or_test_system = "Kv7.2/3 channels (Homo sapiens, UniProt O43525+O43526)"
measured_attribute = "Activity"
value_reported = "Opener"

[[record]]
compound = "Cc1cccc(Nc2ccccc2C(=O)O)c1C [mefenamate, reference compound]"
target_or_test_system = "Kv7.2/3 channels (Homo sapiens, UniProt O43525+O43526)"
measured_attribute = "Activity"
value_reported = "potent M-channel openers"

[[record]]
compound = "Cc1cccc(Nc2ccccc2C(=O)NCCOCCO)c1C"
target_or_test_system = "Kv7.2/3 channels (Homo sapiens, UniProt O43525+O43526)"
measured_attribute = "Activity"
value_reported = "Opener"

[[record]]
compound = "Cc1c(Cl)cccc1Nc1ccccc1C(=O)O [tolfenamate, reference compound]"
target_or_test_system = "Kv7.2/3 channels (Homo sapiens, UniProt O43525+O43526)"
measured_attribute = "Activity"
value_reported = "potent M-channel openers"

[[record]]
compound = "CN(CCO)C(=O)Cc1ccccc1Nc1c(Cl)cccc1Cl"
target_or_test_system = "Kv7.2/3 channels (Homo sapiens, UniProt O43525+O43526)"
measured_attribute = "Activity"
value_reported = "Opener"

[[record]]
compound = "CC(C)COC(=O)c1ccccc1Nc1cccc(C(F)(F)F)c1"
target_or_test_system = "Kv7.2/3 channels (Homo sapiens, UniProt O43525+O43526)"
measured_attribute = "Activity"
value_reported = "totally inactive"

[[record]]
compound = "COCCOCCOC(=O)Cc1ccccc1Nc1c(Cl)cccc1Cl"
target_or_test_system = "Kv7.2/3 channels (Homo sapiens, UniProt O43525+O43526)"
measured_attribute = "Activity"
value_reported = "totally inactive"

[[record]]
compound = "O=C(Cc1cc([N+](=O)[O-])ccc1Nc1c(Cl)cc([N+](=O)[O-])cc1Cl)NCCO"
target_or_test_system = "Kv7.2/3 channels (Homo sapiens, UniProt O43525+O43526)"
measured_attribute = "Activity"
value_reported = "Opener"

[[record]]
compound = "O=C(O)Cc1cc([N+](=O)[O-])ccc1Nc1c(Cl)cccc1Cl"
target_or_test_system = "Kv7.2/3 channels (Homo sapiens, UniProt O43525+O43526)"
measured_attribute = "Activity"
value_reported = "Opener"

[[record]]
compound = "O=C(Cc1cc([N+](=O)[O-])cc([N+](=O)[O-])c1Nc1c(Cl)cc([N+](=O)[O-])cc1Cl)NCCO"
target_or_test_system = "Kv7.2/3 channels (Homo sapiens, UniProt O43525+O43526)"
measured_attribute = "Activity"
value_reported = "Opener"

[[record]]
compound = "O=C(O)Cc1ccccc1Nc1c(Cl)cccc1Cl [Diclofenac, reference compound]"
target_or_test_system = "Kv7.2/3 channels (Homo sapiens, UniProt O43525+O43526)"
measured_attribute = "Activity"
value_reported = "Opener"

[[record]]
compound = "O=C(NCCOCCO)c1ccccc1Nc1cccc(C(F)(F)F)c1"
target_or_test_system = "Kv7.2/3 channels (Homo sapiens, UniProt O43525+O43526)"
measured_attribute = "Activity"
value_reported = "Opener"

[[record]]
compound = "O=C(O)c1ccccc1Nc1cccc(C(F)(F)F)c1 [flufenamate, reference compound]"
target_or_test_system = "Kv7.2/3 channels (Homo sapiens, UniProt O43525+O43526)"
measured_attribute = "Activity"
value_reported = "potent M-channel openers"

[[record]]
compound = "O=C(Cc1cc([N+](=O)[O-])ccc1Nc1c(Cl)cccc1Cl)OCCO"
target_or_test_system = "Kv7.2/3 channels (Homo sapiens, UniProt O43525+O43526)"
measured_attribute = "Activity"
value_reported = "Opener"

[[record]]
compound = "Cc1c(Cl)cccc1Nc1ccccc1C(=O)OCC(C)C"
target_or_test_system = "Kv7.2/3 channels (Homo sapiens, UniProt O43525+O43526)"
measured_attribute = "Activity"
value_reported = "totally inactive"

